Recorded values, source patent US20260116991A1.

Below, each of the binders is paired with its reported OD450 at 100 nM antibody value.
- Target entity: murine GPC3-his protein (Sino Biological, Cat. No. 50989-M08B) (murine) (UniProt Q8CFZ4)
- Sequence (Q8CFZ4 25-558 limits assumed): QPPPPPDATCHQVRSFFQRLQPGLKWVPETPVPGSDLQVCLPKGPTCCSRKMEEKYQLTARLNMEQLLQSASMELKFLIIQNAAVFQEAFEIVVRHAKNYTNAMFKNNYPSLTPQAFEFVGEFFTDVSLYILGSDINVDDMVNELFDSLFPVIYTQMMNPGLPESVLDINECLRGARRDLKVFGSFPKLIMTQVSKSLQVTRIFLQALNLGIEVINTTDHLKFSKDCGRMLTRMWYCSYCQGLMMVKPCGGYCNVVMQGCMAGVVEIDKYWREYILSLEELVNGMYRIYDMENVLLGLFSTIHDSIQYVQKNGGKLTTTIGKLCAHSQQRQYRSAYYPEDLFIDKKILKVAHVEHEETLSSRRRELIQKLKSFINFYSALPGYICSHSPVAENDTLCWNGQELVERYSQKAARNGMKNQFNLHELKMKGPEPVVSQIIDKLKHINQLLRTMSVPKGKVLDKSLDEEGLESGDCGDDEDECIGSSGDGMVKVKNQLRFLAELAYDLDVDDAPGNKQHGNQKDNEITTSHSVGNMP
- Test: ELISA, coated murine GPC3-His
State just the number; it will be interpreted in OD450 nm.

Below: 3 binders and their reported OD450 at 100 nM antibody.
F1.120.16 human-murine chimeric antibody (antibody, human IgG1, kappa, V domains shown) VH: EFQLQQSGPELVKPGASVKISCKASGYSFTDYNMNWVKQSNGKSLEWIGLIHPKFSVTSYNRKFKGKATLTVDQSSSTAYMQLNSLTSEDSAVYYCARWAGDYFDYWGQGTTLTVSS VL: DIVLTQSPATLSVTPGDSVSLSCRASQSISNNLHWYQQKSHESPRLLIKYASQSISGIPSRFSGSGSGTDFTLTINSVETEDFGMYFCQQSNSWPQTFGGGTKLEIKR | 0.54
F1.57.21 human-murine chimeric antibody (antibody, human IgG1, kappa, V domains shown) VH: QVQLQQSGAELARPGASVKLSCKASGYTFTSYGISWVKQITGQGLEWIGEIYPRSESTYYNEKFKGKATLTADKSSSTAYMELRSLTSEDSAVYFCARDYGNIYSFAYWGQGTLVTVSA VL: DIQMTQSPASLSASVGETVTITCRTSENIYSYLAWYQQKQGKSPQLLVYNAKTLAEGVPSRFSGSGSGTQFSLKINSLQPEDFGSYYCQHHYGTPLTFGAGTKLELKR | 0.65
F1.115.8 human-murine chimeric antibody (antibody, human IgG1, kappa, V domains shown) VH: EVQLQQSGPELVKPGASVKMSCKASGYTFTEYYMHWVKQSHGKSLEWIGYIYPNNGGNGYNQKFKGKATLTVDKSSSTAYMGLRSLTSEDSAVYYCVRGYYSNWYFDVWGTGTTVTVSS VL: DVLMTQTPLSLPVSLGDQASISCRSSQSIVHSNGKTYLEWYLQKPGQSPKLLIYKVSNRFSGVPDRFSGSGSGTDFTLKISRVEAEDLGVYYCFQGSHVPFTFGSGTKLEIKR | 0.6

Here's the next entry for you.
Hello, please tell me recorded OD450 at 100 nM antibody for this one: F1.73.9 human-murine chimeric antibody (antibody, human IgG1, kappa, V domains shown) VH: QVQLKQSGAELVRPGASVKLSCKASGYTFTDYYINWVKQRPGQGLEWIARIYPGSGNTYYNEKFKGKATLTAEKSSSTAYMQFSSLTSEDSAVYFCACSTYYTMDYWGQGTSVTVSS VL: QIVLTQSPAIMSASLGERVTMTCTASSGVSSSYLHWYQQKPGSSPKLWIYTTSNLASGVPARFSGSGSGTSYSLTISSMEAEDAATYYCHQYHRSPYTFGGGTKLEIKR
0.52
